- targetOfAssay: KRAS in AGS cells (KRAS G12D mutant cell line) or LS180 cells (KRAS G12D mutant cell line) (Homo sapiens, UniProt P01116, G12D)
- Construct: CRL-187 (LS180) (so in the source); host or cells: AGS or LS180 cells
- Sequence (P01116 1-188 isoform P01116-2 G12D): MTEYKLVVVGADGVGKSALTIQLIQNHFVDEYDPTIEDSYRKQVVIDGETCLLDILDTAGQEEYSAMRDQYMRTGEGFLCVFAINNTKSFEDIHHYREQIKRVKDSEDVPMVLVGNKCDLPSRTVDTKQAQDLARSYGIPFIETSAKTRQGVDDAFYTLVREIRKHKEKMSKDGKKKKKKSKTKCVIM
- testName: KRAS Western Blot (WB) assay
- Assay type: cell-based
- measurementParameters: KRAS degradation, 24 hours incubation, normalized to β-actin
- Description: Day 1. […] Day 3. […] The supernatant was transferred to a fresh Eppendorf tube, and protein concentration was quantified using a BCA kit (Solarbio, PC0020-500). […] Day 5. […] Scanned the membrane on LiCOR scanner for fluorescent signal(s) and quantified KRAS bands and β-actin bands for normalization. […]

{"columns": ["compound", "DC50"],
 "data": [
  ["C#Cc1c(F)ccc2cc(O)cc(-c3ncc4c(N5CC6CCC(C5)N6)nc(OC[C@@]56CCCN5[C@H](COC(=O)NCCCCCCCCCCNc5ccc7c(c5)C(=O)N(C5CCC(=O)NC5=O)C7=O)CC6)nc4c3F)c12 (some centres unmarked) [Compound 015]", "A (DC50 less than 1 μM)"],
  ["C#Cc1c(F)ccc2cc(O)cc(-c3ncc4c(N5CC6CCC(C5)N6)nc(OCC56CCCN5[C@H](COC(=O)NCCCCCCCCCNc5cccc7c5C(=O)N(C5CCC(=O)NC5=O)C7=O)CC6)nc4c3F)c12 (mixture of isomers) [Compound 023]", "A (DC50 less than 1 μM)"]
]}

###

- targetOfAssay: KRAS (G12D)-HiBit in AsPc-1-KRAS (G12D)-HiBit-KI cell (Homo sapiens, UniProt P01116, G12D)
- Construct: host or cells: AsPc-1-KRAS (G12D)-HiBit-KI cells (knock-in line)
- Sequence (P01116 1-188 isoform P01116-2 G12D): as above
- testName: G12D HiBit assay
- Type: cell-based
- measurementParameters: 24 hours compound treatment, absolute DC50, read-out: Average PHA DC50
Overview of reported DC50 across a group of compounds:

{"columns": ["compound", "DC50"],
 "data": [
  ["C#Cc1c(F)ccc2cccc(-c3ncc4c(N5CC6CCC(C5)N6)nc(OC[C@@]56CCCN5[C@H](COC(=O)NC[C@@H]5CN(CC#Cc7cccc8c7n(C)c(=O)n8C7CCC(=O)NC7=O)CCO5)CC6)nc4c3F)c12 (stereo partly shown)", "≥ 300 nM"],
  ["C#Cc1c(F)ccc2cccc(-c3ncc4c(N5CC6CCC(C5)N6)nc(OC[C@]56CCCN5[C@@H](COC(=O)N5CCC(CC7CCN(Cc8cccc9c8n(C)c(=O)n9C8CCC(=O)NC8=O)CC7)CC5)CC6)nc4c3F)c12 (stereo partly shown)", "100 to 300 nM"],
  ["C#Cc1c(F)ccc2cccc(-c3ncc4c(N5CC6CCC(C5)N6)nc(OC[C@@]56CCCN5[C@H](COC(=O)N5CC(OC7CCN(Cc8ccc9c(c8)n(C)c(=O)n9C8CCC(=O)NC8=O)CC7)C5)CC6)nc4c3F)c12 (stereo partly shown)", "< 100 nM"],
  ["C#Cc1c(F)ccc2cccc(-c3ncc4c(N5CC6CCC(C5)N6)nc(OC[C@@]56CCCN5[C@H](COC(=O)N5CCC7(CC5)CCN(c5cccc8c5n(C)c(=O)n8C5CCC(=O)NC5=O)CC7)CC6)nc4c3F)c12 (stereo partly shown)", "≥ 300 nM"]
]}

###

- targetOfAssay: KRAS (G12D)-HiBit in AsPc-1-KRAS (G12D)-HiBit-KI cell (Homo sapiens, UniProt P01116, G12D)
- Construct: host or cells: AsPc-1-KRAS (G12D)-HiBit-KI cells (knock-in line)
- testName: G12D HiBit assay
- Type: cell-based
- measurementParameters: 24 hours compound treatment, absolute DC50, read-out: Average PHA DC50

{"columns": ["compound", "targetOfAssay", "DC50"],
 "data": [
  ["C#Cc1c(F)ccc2cccc(-c3ncc4c(N5CC6CCC(C5)N6)nc(OC[C@@]56CCCN5[C@H](COC(=O)N5CCC(OC7CCN(c8cccc9c8n(C)c(=O)n9C8CCC(=O)NC8=O)CC7)CC5)CC6)nc4c3F)c12 (stereo partly shown)", "KRAS (G12D)-HiBit in AsPc-1-KRAS (G12D)-HiBit-KI cell (Homo sapiens, UniProt P01116, G12D)", "< 100 nM"],
  ["C#Cc1c(F)ccc2cccc(-c3ncc4c(N5CC6CCC(C5)N6)nc(OC[C@@]56CCCN5[C@H](COC(=O)N5CCC(OCCCC#Cc7ccc8c(c7)n(C)c(=O)n8C7CCC(=O)NC7=O)CC5)CC6)nc4c3F)c12 (stereo partly shown)", "KRAS (G12D)-HiBit in AsPc-1-KRAS (G12D)-HiBit-KI cell (Homo sapiens, UniProt P01116, G12D)", "< 100 nM"],
  ["C#Cc1c(F)ccc2cccc(-c3ncc4c(N5CC6CCC(C5)N6)nc(OC[C@@]56CCCN5[C@H](COC(=O)N5CCC(C7CCN(c8cccc9c8n(C)c(=O)n9C8CCC(=O)NC8=O)CC7)CC5)CC6)nc4c3F)c12 (stereo partly shown)", "KRAS (G12D)-HiBit in AsPc-1-KRAS (G12D)-HiBit-KI cell (Homo sapiens, UniProt P01116, G12D)", "≥ 300 nM"],
  ["C#Cc1c(F)ccc2cccc(-c3ncc4c(N5CC6CCC(C5)N6)nc(OC[C@@]56CCCN5[C@H](COC(=O)N5CCC(C7CCN(Cc8ccc9c(c8)n(C)c(=O)n9C8CCC(=O)NC8=O)CC7)CC5)CC6)nc4c3F)c12 (stereo partly shown)", "KRAS (G12D)-HiBit in AsPc-1-KRAS (G12D)-HiBit-KI cell (Homo sapiens, UniProt P01116, G12D)", "< 100 nM"]
]}

###

- targetOfAssay: KRAS (G12D)-HiBit in AsPc-1-KRAS (G12D)-HiBit-KI cell (Homo sapiens, UniProt P01116, G12D)
- Construct: host or cells: AsPc-1-KRAS (G12D)-HiBit-KI cells (knock-in line)
- testName: G12D HiBit assay
- Type: cell-based
- measurementParameters: 24 hours compound treatment, absolute DC50, read-out: Average PHA DC50
propertyMeasured: DC50

{"columns": ["compound", "targetOfAssay", "reportedResult"],
 "data": [
  ["C#Cc1c(F)ccc2cccc(-c3ncc4c(N5CC6CCC(C5)N6)nc(OC[C@@]56CCCN5[C@H](COC(=O)N5CC7(CCN(c8cccc9c8n(C)c(=O)n9C8CCC(=O)NC8=O)CC7)C5)CC6)nc4c3F)c12 (stereo partly drawn)", "KRAS (G12D)-HiBit in AsPc-1-KRAS (G12D)-HiBit-KI cell (Homo sapiens, UniProt P01116, G12D)", "≥ 300 nM"],
  ["C#Cc1c(F)ccc2cccc(-c3ncc4c(N5CC6CCC(C5)N6)nc(OC[C@@]56CCCN5[C@H](COC(=O)N5CCC(OCCCCCCCc7cccc8c7n(C)c(=O)n8C7CCC(=O)NC7=O)CC5)CC6)nc4c3F)c12 (stereo partly drawn)", "KRAS (G12D)-HiBit in AsPc-1-KRAS (G12D)-HiBit-KI cell (Homo sapiens, UniProt P01116, G12D)", "< 100 nM"],
  ["C#Cc1c(F)ccc2cccc(-c3ncc4c(N5CC6CCC(C5)N6)nc(OC[C@@]56CCCN5[C@H](COC(=O)N5CCC(OCCCc7cccc8c7n(C)c(=O)n8C7CCC(=O)N(C)C7=O)CC5)CC6)nc4c3F)c12 (stereo partly drawn)", "KRAS (G12D)-HiBit in AsPc-1-KRAS (G12D)-HiBit-KI cell (Homo sapiens, UniProt P01116, G12D)", "≥ 300 nM"],
  ["C#Cc1c(F)ccc2cccc(-c3ncc4c(N5C[C@H]6CC[C@@H](C5)N6)nc(OC[C@@]56CCCN5[C@H](COC(=O)N5CCC(CC7CCN(c8ccc9c(c8)n(C)c(=O)n9C8CCC(=O)NC8=O)CC7)CC5)CC6)nc4c3F)c12 (stereo partly drawn)", "KRAS (G12D)-HiBit in AsPc-1-KRAS (G12D)-HiBit-KI cell (Homo sapiens, UniProt P01116, G12D)", "< 100 nM"],
  ["C#Cc1c(F)ccc2cccc(-c3ncc4c(N5CC6CCC(C5)N6)nc(OC[C@@]56CCCN5[C@H](COC(=O)N5CCC(CN7CCN(c8cccc9c8n(C)c(=O)n9C8CCC(=O)NC8=O)CC7)CC5)CC6)nc4c3F)c12 (stereo partly drawn)", "KRAS (G12D)-HiBit in AsPc-1-KRAS (G12D)-HiBit-KI cell (Homo sapiens, UniProt P01116, G12D)", "< 100 nM"],
  ["C#Cc1c(F)ccc2cccc(-c3ncc4c(N5CC6CCC(C5)N6)nc(OC[C@@]56CCCN5[C@H](COC(=O)N5CCC(CCC7CCN(Cc8cccc9c8n(C)c(=O)n9C8CCC(=O)NC8=O)CC7)CC5)CC6)nc4c3F)c12 (stereo partly drawn)", "KRAS (G12D)-HiBit in AsPc-1-KRAS (G12D)-HiBit-KI cell (Homo sapiens, UniProt P01116, G12D)", "≥ 300 nM"],
  ["C#Cc1c(F)ccc2cccc(-c3ncc4c(N5CC6CCC(C5)N6)nc(OC[C@@]56CCCN5[C@H](COC(=O)N5CCN(C7CCN(Cc8ccc9c(c8)n(C)c(=O)n9C8CCC(=O)NC8=O)CC7)CC5)CC6)nc4c3F)c12 (stereo partly drawn)", "KRAS (G12D)-HiBit in AsPc-1-KRAS (G12D)-HiBit-KI cell (Homo sapiens, UniProt P01116, G12D)", "100 to 300 nM"],
  ["C#Cc1c(F)ccc2cccc(-c3ncc4c(N5CC6CCC(C5)N6)nc(OC[C@@]56CCCN5[C@H](COC(=O)NCCCC(=O)N5CCC(c7ccc8c(c7)n(C)c(=O)n8C7CCC(=O)NC7=O)CC5)CC6)nc4c3F)c12 (stereo partly drawn)", "KRAS (G12D)-HiBit in AsPc-1-KRAS (G12D)-HiBit-KI cell (Homo sapiens, UniProt P01116, G12D)", "≥ 300 nM"],
  ["C#Cc1c(F)ccc2cccc(-c3ncc4c(N5CC6CCC(C5)N6)nc(OC[C@@]56CCCN5[C@H](COC(=O)N5CCC(OCCCCCc7cccc8c7n(C)c(=O)n8C7CCC(=O)NC7=O)CC5)CC6)nc4c3F)c12 (stereo partly drawn)", "KRAS (G12D)-HiBit in AsPc-1-KRAS (G12D)-HiBit-KI cell (Homo sapiens, UniProt P01116, G12D)", "< 100 nM"]
]}
